In this section, each of the compounds is paired with its reported EC50.
System: PC-12
Experiment: Cytoprotective activity on rat tunicamycin treated rat pheochromocytoma cell line PC12 from apoptosis induced by Endoplasmic reticulum stress
Format: functional, cell-based

[
  {
    "compound": "O=C(/C=C/C1CCCCC1)NC(NC(=S)Nc1ccccn1)C(Cl)(Cl)Cl (stereo unspecified)",
    "inequalitySymbol": "=",
    "EC50, µM": 29
  },
  {
    "compound": "O=C(/C=C/c1ccc([N+](=O)[O-])cc1)NC(/N=C(\\S)Nc1ccccn1)C(Cl)(Cl)Cl (stereo unspecified)",
    "inequalitySymbol": "=",
    "EC50, µM": 28
  },
  {
    "compound": "O=C(/C=C/c1cccs1)NC(NC(=S)Nc1ccccn1)C(Cl)(Cl)Cl (stereo unspecified)",
    "inequalitySymbol": "=",
    "EC50, µM": 41
  },
  {
    "compound": "Nc1ccc(/C=C/C(=O)NC(/N=C(\\S)Nc2ccccn2)C(Cl)(Cl)Cl)cc1 (stereo unspecified)",
    "inequalitySymbol": "=",
    "EC50, µM": 56
  },
  {
    "compound": "O=C(/C=C/c1ccccc1)NC(NC(=S)Nc1cccc2cccnc12)C(Cl)(Cl)Cl (stereo unspecified) [SALUBRINAL]",
    "inequalitySymbol": "=",
    "EC50, µM": 15
  },
  {
    "compound": "O=C(CCc1ccccc1)NC(NC(=S)Nc1ccccn1)C(Cl)(Cl)Cl (stereo unspecified)",
    "inequalitySymbol": "=",
    "EC50, µM": 33
  },
  {
    "compound": "O=C(/C=C/c1cccnc1)NC(NC(=S)Nc1ccccn1)C(Cl)(Cl)Cl (stereo unspecified)",
    "inequalitySymbol": "=",
    "EC50, µM": 30
  },
  {
    "compound": "CCCC/N=C(\\S)NC(NC(=O)/C=C/c1ccccc1)C(Cl)(Cl)Cl (stereo unspecified)",
    "inequalitySymbol": "=",
    "EC50, µM": 24
  },
  {
    "compound": "O=C(/C=C/c1ccccc1C(F)(F)F)NC(/N=C(\\S)Nc1ccccn1)C(Cl)(Cl)Cl (stereo unspecified)",
    "inequalitySymbol": "=",
    "EC50, µM": 38
  },
  {
    "compound": "O=C(/C=C/c1ccccc1)NC(NC(=S)NC(=O)c1ccccc1)C(Cl)(Cl)Cl (stereo unspecified)",
    "inequalitySymbol": ">",
    "EC50, µM": 100
  },
  {
    "compound": "O=C(/C=C/c1ccccc1Cl)NC(NC(=S)Nc1ccccn1)C(Cl)(Cl)Cl (stereo unspecified)",
    "inequalitySymbol": "=",
    "EC50, µM": 40
  },
  {
    "compound": "O=C(/C=C/c1ccccc1)NC(NC(=S)Nc1ccccn1)C(Cl)(Cl)Cl (stereo unspecified)",
    "inequalitySymbol": "=",
    "EC50, µM": 40
  },
  {
    "compound": "O=C(/C=C/c1ccccc1)NC(NC(=S)Nc1ccccn1)C(Cl)Cl (stereo unspecified)",
    "inequalitySymbol": "=",
    "EC50, µM": 75
  },
  {
    "compound": "O=C(/C=C/c1ccccc1)NC(NC(=S)Nc1ccccn1)C(Br)(Br)Br (stereo unspecified)",
    "inequalitySymbol": "=",
    "EC50, µM": 51
  },
  {
    "compound": "O=C(/C=C/c1ccc(Br)cc1)NC(NC(=S)Nc1ccccn1)C(Cl)(Cl)Cl (stereo unspecified)",
    "inequalitySymbol": "=",
    "EC50, µM": 50
  },
  {
    "compound": "O=C(/C=C/c1ccc(F)cc1F)NC(/N=C(\\S)Nc1ccccn1)C(Cl)(Cl)Cl (stereo unspecified)",
    "inequalitySymbol": "=",
    "EC50, µM": 72
  }
]
